B1: FUT8 (parent)
chain: NWRYATGGWETVFRPVSETCTDRS

- Variants of: B1
- assay text: protein stability index of a GFP-peptide fusion (GPS, HEK-293T) (PSI 1-6); higher = more stable;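 also: lentivirally expressed fusions sorted by FACS into six bins by GFP to DsRed ratio, PSI derived from sequencing read proportions per bin multiplied by bin number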
- test parameters: c terminus: a fixed tail appended
Task for the reader: assign each of the following variants its reported protein stability index.
Output spec: single numeric token, no unit.

query: Fill in: protein stability index of `T6D` is ___
result: 2.72

query: Recorded protein stability index for `W9P` , please?
result: 2.95

query: If you can, please state the reported protein stability index value of `R3F` .
result: 1.97

query: I would be grateful if you could share the reported protein stability index for `S24Q` .
result: 2.72

query: # lookup: protein stability index of `W9K`
result: 2.06

query: # lookup: protein stability index of `N1H`
result: 2.74

query: Returns the measured protein stability index for the input variant. Input: `F13D`
result: 3.66

query: Which value of protein stability index has been reported for `S17A` in the records?
result: 2.34

query: Consider the variant `G7E` and give its measured protein stability index.
result: 3.17

query: // query protein stability index value for entry `C20I`
result: 1.63

query: For the variant shown here, `G7C` , give the reported protein stability index.
result: 2.08

Numbers sourced from the supplement of paper PMC10567573.
